Source of measurements: PubChem BioAssay AID1671246

molecular target: Casein kinase I isoform gamma-1 (Homo sapiens) (UniProt Q9HCP0); assay: CSNK1G1 kinase inhibitors, dose response, biochemical, Z'-LYTE, FRET, protease-coupled, direct format (AID 1671246); conditions: Z'-LYTE FRET kinase activity, recombinant CSNK1G1
Sequence (Q9HCP0 whole entry, looked up, canonical isoform): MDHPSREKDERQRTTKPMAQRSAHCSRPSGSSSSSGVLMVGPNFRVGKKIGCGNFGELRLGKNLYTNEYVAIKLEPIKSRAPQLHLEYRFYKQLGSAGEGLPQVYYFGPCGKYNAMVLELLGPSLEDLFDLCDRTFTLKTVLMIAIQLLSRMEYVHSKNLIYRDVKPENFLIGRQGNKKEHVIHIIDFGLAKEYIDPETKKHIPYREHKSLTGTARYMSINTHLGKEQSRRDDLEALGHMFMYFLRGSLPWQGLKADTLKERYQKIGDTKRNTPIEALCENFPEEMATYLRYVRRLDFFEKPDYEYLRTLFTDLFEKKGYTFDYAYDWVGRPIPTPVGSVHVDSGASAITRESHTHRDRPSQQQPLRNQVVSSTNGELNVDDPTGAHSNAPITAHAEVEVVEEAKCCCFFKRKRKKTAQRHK
Measured Attribute: IC50

Form field: reported IC50 of CN1C(=O)C2(Cc3cn(C45CC67SSC(CO)(C(=O)N6C4Nc4ccccc45)N(C)C7=O)c4ccccc34)SSC1(CO)C(=O)N2C (stereo unspecified) 109 nM
